- System: Candida
- protocol.notes: Antifungal activity against Candida mycoderma ATCC 9888 after 24 hrs by micro broth dilution assay
- Assay type: functional
- condition.description: ATCC 9888, 24 h
# maps each entry to its MIC

Sample answers from the record:
[
  {
    "chemical.structure": "O=c1c2ccc(Cl)cc2ncn1CCn1ccnc1",
    "test.system": "Candida",
    "meas.value": "> 1860 µM"
  },
  {
    "chemical.structure": "O=c1c2ccc(F)cc2ncn1CCCCCCCCCCBr",
    "test.system": "Candida",
    "meas.value": "> 1340 µM"
  },
  {
    "chemical.structure": "Cc1ncc([N+](=O)[O-])n1CCn1cnc2cc(F)ccc2c1=O",
    "test.system": "Candida",
    "meas.value": "30 µM"
  },
  {
    "chemical.structure": "O=c1c2ccc(Cl)cc2ncn1CCn1cnc([N+](=O)[O-])c1",
    "test.system": "Candida",
    "meas.value": "800 µM"
  },
  {
    "chemical.structure": "O=c1c2ccc(Cl)cc2ncn1CCCCCCCCCCBr",
    "test.system": "Candida",
    "meas.value": "> 1280 µM"
  }
]

Now, please, on to the next molecule.
Read the entry O=c1c2ccc(F)cc2ncn1CCCCCBr and write its reported MIC.
> 1630 µM

###

- System: Pseudomonas aeruginosa
- protocol.notes: Antibacterial activity against Pseudomonas aeruginosa ATCC 27853 a after 24 hrs by micro broth dilution assay
- Format: functional
- condition.description: ATCC 27853, 24 h
# maps each entry to its MIC

Sample answers from the record:
[
  {
    "chemical.structure": "Cc1ncc([N+](=O)[O-])n1CCCCCCCCCCn1cnc2cc(Cl)ccc2c1=O",
    "MIC": "> 1150 µM"
  },
  {
    "chemical.structure": "O=c1c2ccc(F)cc2ncn1CCCCBr",
    "MIC": "> 1710 µM"
  }
]

Now, please, on to the next compound.
Read the entry O=c1c2ccc(F)cc2ncn1CCCCCCCCCCBr and write its reported MIC.
> 1340 µM

###

- protocol.notes: Antibacterial activity against Eberthella typhosa ATCC 14028 after 24 hrs by micro broth dilution assay
- Type: functional
- condition.description: ATCC 14028, 24 h
observation.type: MIC (µM)
Give the value, in units of µM, as a plain number.

[
  {
    "molecule": "CCn1cc(C(=O)O)c(=O)c2cc(F)c(N3CCNCC3)cc21 [NORFLOXACIN]",
    "scale.unit": "µM",
    "MIC": 10
  },
  {
    "molecule": "O=c1c2ccc(F)cc2ncn1CCCCCCCCCCn1cnc([N+](=O)[O-])c1",
    "scale.unit": "µM",
    "MIC": 310
  },
  {
    "molecule": "Cc1ncc([N+](=O)[O-])n1CCCCCCCCCCn1cnc2cc(F)ccc2c1=O",
    "scale.unit": "µM",
    "MIC": 20
  },
  {
    "molecule": "O=c1c2ccc(F)cc2ncn1CCn1cnc([N+](=O)[O-])c1",
    "scale.unit": "µM",
    "MIC": 420
  },
  {
    "molecule": "Cc1ncc([N+](=O)[O-])n1CCCCCCn1cnc2cc(Cl)ccc2c1=O",
    "scale.unit": "µM",
    "MIC": 20
  },
  {
    "molecule": "Cc1ncc([N+](=O)[O-])n1CCCCCCn1cnc2cc(F)ccc2c1=O",
    "scale.unit": "µM",
    "MIC": 20
  },
  {
    "molecule": "O=c1c2ccc(F)cc2ncn1CCCCCCn1cnc([N+](=O)[O-])c1",
    "scale.unit": "µM",
    "MIC": 360
  },
  {
    "molecule": "O=c1c2ccc(Cl)cc2ncn1CCCCn1cnc([N+](=O)[O-])c1",
    "scale.unit": "µM",
    "MIC": 370
  }
]

Read the entry Cc1ncc([N+](=O)[O-])n1CCn1cnc2cc(F)ccc2c1=O and write its reported MIC.
30

Read the entry O=c1c2ccc(F)cc2ncn1CCCCn1cnc([N+](=O)[O-])c1 and write its reported MIC.
390

Read the entry Cc1ncc([N+](=O)[O-])n1CCCCn1cnc2cc(F)ccc2c1=O and write its reported MIC.
20

###

# maps each entry to its log10 MIC
- System: Staphylococcus aureus
- protocol.notes: Antibacterial activity against Staphylococcus aureus ATCC 25923 after 24 hrs by micro broth dilution assay
- Type: functional
- condition.description: ATCC 25923, 24 h
Please be aware that the numbers have been log10-transformed from MIC in µM.

Sample answers from the record:
[
  {
    "chemical.structure": "O=c1c2ccc(Cl)cc2ncn1CCn1cncn1",
    "log10 MIC": 2.97
  },
  {
    "chemical.structure": "O=c1c2ccc(F)cc2ncn1CCCCCCCCCCn1cnc([N+](=O)[O-])c1",
    "log10 MIC": 2.49
  },
  {
    "chemical.structure": "O=c1c2ccc(Cl)cc2ncn1CCCCCn1cnc([N+](=O)[O-])c1",
    "log10 MIC": 2.26
  }
]

Now, please, on to the next compound.
Read the entry Cc1ncc([N+](=O)[O-])n1CCCCCCn1cnc2cc(Cl)ccc2c1=O and write its reported log10 MIC.
1.30

###

- System: Bacillus sp.
- protocol.notes: Antibacterial activity against Bacillus proteus ATCC 13315 after 24 hrs by micro broth dilution assay
- Type: functional
- condition.description: Bacillus sp. (in: firmicutes), ATCC 13315, 24 h
observation.type: log10 of MIC (log10 of the value in µM)
Please be aware that the numbers have been log10-transformed from MIC in µM.

Sample answers from the record:
[
  {
    "chemical.structure": "Cc1ncc([N+](=O)[O-])n1CCCCn1cnc2cc(F)ccc2c1=O",
    "meas.value": 1.30
  },
  {
    "chemical.structure": "O=c1c2ccc(Cl)cc2ncn1CCCCCCCCCCn1cnc([N+](=O)[O-])c1",
    "meas.value": 1.85
  },
  {
    "chemical.structure": "O=c1c2ccc(F)cc2ncn1CCCCCCn1cnc([N+](=O)[O-])c1",
    "meas.value": 1.95
  }
]

Read the entry Cc1ncc([N+](=O)[O-])n1CCCCCn1cnc2cc(Cl)ccc2c1=O and write its reported log10 of MIC.
1.30

Read the entry O=c1c2ccc(Cl)cc2ncn1CCn1cnc([N+](=O)[O-])c1 and write its reported log10 of MIC.
2.60

Read the entry Cc1ncc([N+](=O)[O-])n1CCn1cnc2cc(F)ccc2c1=O and write its reported log10 of MIC.
1.70

Read the entry O=c1c2ccc(F)cc2ncn1CCCCBr and write its reported log10 of MIC.
2.93

Read the entry Cc1ncc([N+](=O)[O-])n1CCCCCn1cnc2cc(F)ccc2c1=O and write its reported log10 of MIC.
1.30

###

- Test system: Candida
- protocol.notes: Antifungal activity against Candida mycoderma ATCC 9888 after 24 hrs by micro broth dilution assay
- Type: functional
- condition.description: ATCC 9888, 24 h
# maps each entry to its MIC
Give the value, in units of µM, as a plain number.

Sample answers from the record:
[
  {
    "chemical.structure": "OC(Cn1cncn1)(Cn1cncn1)c1ccc(F)cc1F",
    "scale.unit": "µM",
    "meas.value": 10
  },
  {
    "chemical.structure": "O=c1c2ccc(Cl)cc2ncn1CCn1cncn1",
    "scale.unit": "µM",
    "meas.value": 460
  },
  {
    "chemical.structure": "Cc1ncc([N+](=O)[O-])n1CCCCCn1cnc2cc(Cl)ccc2c1=O",
    "scale.unit": "µM",
    "meas.value": 20
  },
  {
    "chemical.structure": "O=c1c2ccc(F)cc2ncn1CCCCCn1cnc([N+](=O)[O-])c1",
    "scale.unit": "µM",
    "meas.value": 190
  }
]

Now, please, on to the next compound.
Read the entry Cc1ncc([N+](=O)[O-])n1CCCCCCCCCCn1cnc2cc(Cl)ccc2c1=O and write its reported MIC.
40

###

# maps each entry to its MIC
- protocol.notes: Antibacterial activity against Eberthella typhosa ATCC 14028 after 24 hrs by micro broth dilution assay
- Assay type: functional
- condition.description: ATCC 14028, 24 h

[
  {
    "chemical.structure": "O=c1c2ccc(Cl)cc2ncn1CCCCBr",
    "observation.type": "MIC",
    "meas.value": "> 1620 µM"
  },
  {
    "chemical.structure": "O=c1c2ccc(F)cc2ncn1CCCCCCBr",
    "observation.type": "MIC",
    "meas.value": "> 1560 µM"
  },
  {
    "chemical.structure": "O=c1c2ccc(F)cc2ncn1CCBr",
    "observation.type": "MIC",
    "meas.value": "> 1890 µM"
  },
  {
    "chemical.structure": "O=c1c2ccc(F)cc2ncn1CCCCCBr",
    "observation.type": "MIC",
    "meas.value": "> 1630 µM"
  },
  {
    "chemical.structure": "OC(Cn1cncn1)(Cn1cncn1)c1ccc(F)cc1F",
    "observation.type": "MIC",
    "meas.value": "> 1670 µM"
  }
]

Read the entry O=c1c2ccc(F)cc2ncn1CCCCCCCCCCBr and write its reported MIC.
> 1340 µM

Read the entry O=c1c2ccc(F)cc2ncn1CCCCBr and write its reported MIC.
> 1710 µM
